# Tested on: S. aureus
# ASSAY OVERVIEW: Anti-microbial activity, inhibition zone, S. aureus
# Assay type: cell-based
OBSERVABLE: activity against S. aureus (in words)

# SAMPLE SMILES, ENDPOINT RESULT
rows = [
    ("O=[N+]([O-])c1ccccc1C=Nc1nccs1", "exhibited activities"),
    ("COc1ccc(C=Nc2nccs2)c(OC)c1", "exhibited activities"),
    ("Oc1ccccc1C=Nc1nccs1", "exhibited activities"),
]

====

# System: S. aureus
# ASSAY OVERVIEW: Anti-microbial activity, inhibition zone, S. aureus; for Inhibition Zone(mm ± SD) S. aureus: test concentration or dose not given here
# Format: cell-based
# REPORTED CONDITIONS: S. aureus
Inhibition Zone(mm ± SD) S. aureus values by entry
Lab book: enter the figure in mm, no units written.

Look over these answered cases.
# MOLECULE, OBSERVABLE, SCALE UNIT, ENDPOINT RESULT
rows = [
    ("Oc1ccccc1C=Nc1nccs1", "Inhibition Zone(mm ± SD) S. aureus", "mm", 9.6),
    ("COc1cccc(C=Nc2nccs2)c1OC", "Inhibition Zone(mm ± SD) S. aureus", "mm", 9.3),
    ("NC1=NNC(=O)C1N=Nc1nccs1 (stereo not shown)", "Inhibition Zone(mm ± SD) S. aureus", "mm", 12.3),
]

Please find the next molecule below.
Consider the molecule "Cc1[nH]c2ccccc2c1C=Nc1nccs1" and give its recorded Inhibition Zone(mm ± SD) S. aureus.
11.3

====

# System: E. coli
# ASSAY OVERVIEW: Anti-microbial activity, inhibition zone, E. coli; note: test concentration or dose not given here
# Type: cell-based
# REPORTED CONDITIONS: E. coli
OBSERVABLE: Inhibition Zone(mm ± SD) E. coli
The answer should read as a number with its unit following.

Answered cases to consult:
# SAMPLE SMILES, Inhibition Zone(mm ± SD) E. coli
records = [
    ("Nc1nccs1", "9.8 ± 0.2 mm"),
    ("Clc1ccc(C=Nc2nccs2)cc1", "14.3 ± 0.4 mm"),
    ("COc1ccc(C=Nc2nccs2)cc1", "12.3 ± 0.4 mm"),
    ("Oc1ccccc1C=Nc1nccs1", "14.95 ± 0.5 mm"),
]

Kindly review the next molecule as well.
Please give measured Inhibition Zone(mm ± SD) E. coli of the following entry: "C(=Nc1nccs1)c1ccccc1"
8.8 ± 0.4 mm

All values here come from patent US12281086B2.
